Source listed as ChEMBL document CHEMBL1134537.

# Lookup of reported ID50 keyed by entry
Species: Cavia porcellus
ASSAY: Ex vivo inhibition of ADP induced aggregation in guinea pig platelets
Format: functional
Value expressed in µg/min/kg; do not type the unit.

Worked examples follow.
N=C(N)NCCCC(=O)NCCC[C@H]1C(=O)N(CC(=O)O)CCN1C(=O)CNC(=O)c1ccc(C(=N)N)cc1 : 0.47
N=C(N)Nc1ccc(C(=O)NCCC[C@H]2C(=O)N(CC(=O)O)CCN2C(=O)CNC(=O)c2ccc(NC(=N)N)cc2)cc1 : 0.18
N=C(N)Nc1ccc(C(=O)NC[C@H]2C(=O)N(CC(=O)O)CCN2C(=O)CNC(=O)c2ccc(C(=N)N)cc2)cc1 : 0.66
N=C(N)Nc1ccc(C(=O)NCCC[C@H]2C(=O)N(CC(=O)O)CCN2C(=O)CNC(=O)c2ccc(C(=N)N)cc2)cc1 : 0.087
COc1ccc(C[C@H](NC(=O)c2ccc(C(=N)N)cc2)C(=O)N2CCN(CC(=O)O)C(=O)[C@@H]2CCCCNC(=O)c2ccc(C(=N)N)cc2)cc1 : 0.041

Problem: Tell us which ID50 value is on record for N=C(N)c1ccc(C(=O)NCC(=O)N2CCN(CC(=O)O)C(=O)[C@@H]2CCCNC(=O)CCCCN)cc1
Result: 0.94

Problem: Tell us which ID50 value is on record for N=C(N)Nc1ccc(C(=O)NCC[C@H]2C(=O)N(CC(=O)O)CCN2C(=O)CNC(=O)c2ccc(C(=N)N)cc2)cc1
Result: 0.12

Problem: Tell us which ID50 value is on record for N=C(N)Nc1ccc(C(=O)NCC[C@H]2C(=O)N(CC(=O)O)CCN2C(=O)CNC(=O)c2ccc(NC(=N)N)cc2)cc1
Result: 0.88

Problem: Tell us which ID50 value is on record for N=C(N)Nc1ccc(C(=O)NCC(=O)N2CCN(CC(=O)O)C(=O)[C@@H]2CNC(=O)c2ccc(NC(=N)N)cc2)cc1
Result: 1

Problem: Tell us which ID50 value is on record for N=C(N)c1ccc(C(=O)NCCCC[C@H]2C(=O)N(CC(=O)O)CCN2C(=O)CNC(=O)c2ccc(C(=N)N)cc2)cc1
Result: 0.79

* * *

Organism: Homo sapiens
ASSAY: In vitro effect on TRAP induced human platelet aggregation
Assay type: functional
ENDPOINT_LABEL: IC50 (nM)
Value expressed in nM; do not type the unit.

N=C(N)Nc1ccc(C(=O)NCCC[C@H]2C(=O)N(CC(=O)O)CCN2C(=O)CNC(=O)c2ccc(NC(=N)N)cc2)cc1 : 91

# input for lookup
Problem: Tell us which IC50 value is on record for COC(=O)C[C@H]1C(=O)N(CC(=O)O)CCN1C(=O)CNC(=O)c1ccc(C(=N)N)cc1
Result: 32

* * *

Organism: Cavia porcellus
ASSAY: In vitro inhibition of ADP induced aggregation in guinea pig platelets
Format: functional
IC50 under 0.05 µM gets YES, anything at or over 0.05 µM gets NO.

Answered cases to consult:
COc1ccc(C[C@H](NC(=O)c2ccc(C(=N)N)cc2)C(=O)N2CCN(CC(=O)O)C(=O)[C@@H]2CCCCNC(=O)c2ccc(C(=N)N)cc2)cc1 : YES
COc1ccc(C[C@H](NC(=O)c2ccc(C(=N)N)cc2)C(=O)N2CCN(CC(=O)O)C(=O)[C@@H]2CCCNC(=O)c2ccc(C(=N)N)cc2)cc1 : YES
N=C(N)c1ccc(C(=O)NCCCC[C@H]2C(=O)N(CC(=O)O)CCN2C(=O)CNC(=O)c2ccc(C(=N)N)cc2)cc1 : NO

Problem: Below 0.05 µM on IC50? Entry N=C(N)c1ccc(C(=O)NCC[C@H]2C(=O)N(CC(=O)O)CCN2C(=O)CNC(=O)c2ccc(C(=N)N)cc2)cc1
Result: NO

Problem: Below 0.05 µM on IC50? Entry N=C(N)NCCCC(=O)NCCC[C@H]1C(=O)N(CC(=O)O)CCN1C(=O)CNC(=O)c1ccc(C(=N)N)cc1
Result: NO

* * *

Organism: Cavia porcellus
ASSAY: In vitro effect on ADP induced platelet aggregation in guinea pig platelet rich plasma
Assay type: functional
ENDPOINT_LABEL: pIC50
Recall that pIC50 is obtained by taking minus log10 of the concentration measured in molar.

COC(=O)C[C@H]1C(=O)N(CC(=O)O)CCN1C(=O)CNC(=O)c1ccc(C(=N)N)cc1 : 7.37

# input for lookup
Problem: Tell us which pIC50 value is on record for N=C(N)Nc1ccc(C(=O)NCCC[C@H]2C(=O)N(CC(=O)O)CCN2C(=O)CNC(=O)c2ccc(NC(=N)N)cc2)cc1
Result: 7.29

* * *

Species: Homo sapiens
ASSAY: In vitro effect on PAF induced human platelet aggregation
Assay type: functional
# Lookup of reported pIC50 keyed by entry
Recall that pIC50 is obtained by taking minus log10 of the concentration measured in molar.

N=C(N)Nc1ccc(C(=O)NCCC[C@H]2C(=O)N(CC(=O)O)CCN2C(=O)CNC(=O)c2ccc(NC(=N)N)cc2)cc1 : 7.52

# input for lookup
Problem: Tell us which pIC50 value is on record for COC(=O)C[C@H]1C(=O)N(CC(=O)O)CCN1C(=O)CNC(=O)c1ccc(C(=N)N)cc1
Result: 7.54

* * *

Organism: Cavia porcellus
ASSAY: Ex vivo inhibition of ADP induced aggregation in guinea pig platelets
Assay type: functional
ID50 under 0.4 µg/min/kg gets Y, anything at or over 0.4 µg/min/kg gets N.

N=C(N)c1ccc(C(=O)NCCC[C@H]2C(=O)N(CC(=O)O)CCN2C(=O)CNC(=O)c2ccc(C(=N)N)cc2)cc1 : Y
N=C(N)c1ccc(C(=O)NCC(=O)N2CCN(CC(=O)O)C(=O)[C@@H]2CNC(=O)c2ccc(C(=N)N)cc2)cc1 : N
N=C(N)Cc1ccc(C(=O)NC[C@H]2C(=O)N(CC(=O)O)CCN2C(=O)CNC(=O)c2ccc(C(=N)N)cc2)cc1 : N
N=C(N)c1ccc(C(=O)NCC[C@H]2C(=O)N(CC(=O)O)CCN2C(=O)CNC(=O)c2ccc(C(=N)N)cc2)cc1 : N
COc1ccc(C[C@H](NC(=O)c2ccc(C(=N)N)cc2)C(=O)N2CCN(CC(=O)O)C(=O)[C@@H]2CCCNC(=O)c2ccc(C(=N)N)cc2)cc1 : Y
N=C(N)c1ccc(C(=O)NCC(=O)N2CCN(CC(=O)O)C(=O)[C@@H]2CCCNC(=O)CCCCCN)cc1 : N

Alright, here's another compound for you.
Problem: Below 0.4 µg/min/kg on ID50? Entry N=C(N)c1ccc(C(=O)NCC(=O)N2CCN(CC(=O)O)C(=O)[C@@H]2CCCNC(=O)c2ccc(CCN)cc2)cc1
Result: N

* * *

Organism: Cavia porcellus
ASSAY: In vitro inhibition of ADP induced aggregation in guinea pig platelets
Type: functional
pIC50: −log10 of the molar value.
If the reported pIC50 equals or exceeds 7, assign rule met. If not, assign rule not met.

Answered cases to consult:
N=C(N)Nc1ccc(C(=O)NCCC[C@H]2C(=O)N(CC(=O)O)CCN2C(=O)CNC(=O)c2ccc(NC(=N)N)cc2)cc1 : rule met
N=C(N)c1ccc(C(=O)NCC(=O)N2CCN(CC(=O)O)C(=O)[C@@H]2CCCNC(=O)CCCCN)cc1 : rule not met
N=C(N)Nc1ccc(C(=O)NCC[C@H]2C(=O)N(CC(=O)O)CCN2C(=O)CNC(=O)c2ccc(C(=N)N)cc2)cc1 : rule met
N=C(N)c1ccc(C(=O)NCCC[C@H]2C(=O)N(CC(=O)O)CCN2C(=O)CNC(=O)c2ccc(C(=N)N)cc2)cc1 : rule met
N=C(N)Cc1ccc(C(=O)NC[C@H]2C(=O)N(CC(=O)O)CCN2C(=O)CNC(=O)c2ccc(C(=N)N)cc2)cc1 : rule met

Alright, here's another compound for you.
Problem: Given the entry N=C(N)Nc1ccc(C(=O)NCCC[C@H]2C(=O)N(CC(=O)O)CCN2C(=O)CNC(=O)c2ccc(C(=N)N)cc2)cc1 , answer whether its pIC50 meets or surpasses 7.
Result: rule met

* * *

Species on record: Cavia porcellus
ASSAY: In vitro inhibition of ADP induced aggregation in guinea pig platelets
Assay type: functional
# Lookup of reported pIC50 keyed by entry
Recall that pIC50 is obtained by taking minus log10 of the concentration measured in molar.

Worked examples follow.
N=C(N)Cc1ccc(C(=O)NCCC[C@H]2C(=O)N(CC(=O)O)CCN2C(=O)CNC(=O)c2ccc(C(=N)N)cc2)cc1 : 7.17
N=C(N)Nc1ccc(C(=O)NCC[C@H]2C(=O)N(CC(=O)O)CCN2C(=O)CNC(=O)c2ccc(NC(=N)N)cc2)cc1 : 7.01
N=C(N)c1ccc(C(=O)NCC(=O)N2CCN(CC(=O)O)C(=O)[C@@H]2CCCNC(=O)CCCCCN)cc1 : 6.80

Problem: Tell us which pIC50 value is on record for N=C(N)c1ccc(C(=O)NCC(=O)N2CCN(CC(=O)O)C(=O)[C@@H]2CCCNC(=O)c2ccc(CCN)cc2)cc1
Result: 7.09

Problem: Tell us which pIC50 value is on record for N=C(N)Nc1ccc(C(=O)NCC(=O)N2CCN(CC(=O)O)C(=O)[C@@H]2CNC(=O)c2ccc(NC(=N)N)cc2)cc1
Result: 6.85

Problem: Tell us which pIC50 value is on record for N=C(N)Nc1ccc(C(=O)NC[C@H]2C(=O)N(CC(=O)O)CCN2C(=O)CNC(=O)c2ccc(C(=N)N)cc2)cc1
Result: 7.07

Problem: Tell us which pIC50 value is on record for N=C(N)c1ccc(C(=O)NCC(=O)N2CCN(CC(=O)O)C(=O)[C@@H]2CNC(=O)c2ccc(C(=N)N)cc2)cc1
Result: 6.92
